- tested_on: T1, MCP-4 (CCL13) (UniProt Q99616 24-98)
- T1 construct: Bought chemokine
- method: micro-array, phage-presented peptide on printed CK
- Procedure: (1) Printing: Chemokine (CK) solution (in water) was serially diluted with Print Reagent (GenTel BioSurfaces USA) to final concentrations of 50 μg and 25 μg/ml. BSA/BSA-Biotin control solutions (in water) were diluted with Print Reagent to 100 μg/ml. […] (11) Analysis: Quantitative analysis of micro-array was performed by the SpotReader program of Niles Scientific (USA) and presented as Relative Fluorescence (RF) as a function of CK concentration. […]
Recorded Relative Fluorescence Units (RFU) values for a group of binders are listed next.

[
  {
    "binder": "WVFGNAMCK (also called Ph-p28; Ph-p 8) [Phage Presented (Ph) Peptide (p) 8]",
    "Relative Fluorescence Units (RFU)": "> 25000 RFU"
  },
  {
    "binder": "DYDYG [Phage-Presented Peptide 31 (Ph-p31)]",
    "Relative Fluorescence Units (RFU)": "> 15000 RFU"
  },
  {
    "binder": "HHTCSLHFP [Phage-Presented Peptide 16 (Ph-p16)]",
    "Relative Fluorescence Units (RFU)": "> 15000 RFU"
  },
  {
    "binder": "WVFGNAACK [Phage-Presented Peptide 8.7 (Ph-p8.7)]",
    "Relative Fluorescence Units (RFU)": "> 15000 RFU"
  },
  {
    "binder": "TTFFDYDYG [Phage-Presented Peptide 11 (Ph-p11)]",
    "Relative Fluorescence Units (RFU)": "> 600 RFU"
  },
  {
    "binder": "DYDY [Phage-Presented Peptide 32 (Ph-p32)]",
    "Relative Fluorescence Units (RFU)": "> 10000 RFU"
  },
  {
    "binder": "WVFGAAMCK [Phage-Presented Peptide 8.8 (Ph-p8.8)]",
    "Relative Fluorescence Units (RFU)": "> 15000 RFU"
  },
  {
    "binder": "WVFGVHFCK [Phage-Presented Peptide 8.77 (Ph-p8.77)]",
    "Relative Fluorescence Units (RFU)": "> 15000 RFU"
  }
]
